Source of measurements: patent US20240391862A1

I'd appreciate it if you could supply Pre-emergence effect at 80 g/ha against VIOTR in % values for the items below.
tested on: VIOTR; assay: Pre-emergence herbicidal effect, greenhouse pot test; assay type: in vivo, Viola tricolor; conditions: 80 g/ha, scored visually after about 3 weeks vs untreated controls
Number in %, nothing else.

The reported Pre-emergence effect at 80 g/ha against VIOTR in % value, VIOTR, for COC(=O)C(OC)Oc1nn(-c2ccccc2F)c(-c2ccc(F)nc2)c1Br (racemic) reads 80

The reported Pre-emergence effect at 80 g/ha against VIOTR in % value, VIOTR, for COC(Oc1nn(-c2cc(F)ccc2F)c(-c2cncc(F)c2)c1C1CC1)C(=O)O (stereo not shown) reads 100

The reported Pre-emergence effect at 80 g/ha against VIOTR in % value, VIOTR, for COC(=O)C(OC)Oc1nn(-c2cc(F)ccc2F)c(-c2cncc(F)c2)c1C1CC1 (stereo not shown) reads 100

The reported Pre-emergence effect at 80 g/ha against VIOTR in % value, VIOTR, for COC(=O)CCOC(=O)C(OC)Oc1nn(-c2ncccc2F)c(-c2cncc(F)c2)c1C1CC1 (single isomer, unassigned) reads 100
